Tested on: Inflammatory mediator NO
Assay: Inhibition of nitric oxide synthesis in LPS-stimulated RAW264.7 macrophages (Griess reaction)
Format: cell-based, murine
Conditions: Mus musculus; single substance, LPS-stimulated RAW264.7; read-out: IC50 Nitric Oxide
measured-metric: IC50

compound	observed
N[C@H]1C(O)O[C@H](CO)[C@@H](O)[C@@H]1O.O=S(=O)(O)O (stereo partly shown) [Glucosamine sulfate, glucosamine sulfate]	> 100 µM
